Every entry's value here was drawn from patent US10919941B2.

system: antibody negative serums; experiment: False positive reactions of modified RBCs with antibody negative serums/plasma; format: cell-based, human; set-up: key: 0 or ‘−’ no agglutination; 0 or ‘−’ no agglutination; 1+ or 3=very weak agglutination; 1+ or 3=very weak agglutination; 2+ or 5=weak agglutination; 2+ or 5=weak agglutination; 3+ or 8=moderate strong agglutination; 3+ or 8=moderate strong agglutination; 4+ or 10/12=strong agglutination; 4+ or 10/12=strong agglutination; 4+ or 10/12=strong agglutination; details: larger series = 102; cells modified at 50 μg/ml, 2 hour 37° C.; BioVue AHG cards
No end group written: not given here.
property_name: agglutination score, false positive serum T28
Reply with just the number.

The examples below pair each entry with its known result.
M29: DOPE peptide-lipid construct: Mur peptide PAHTANEVS, leader c, spacer CMG(2) (PAHTANEVSC; also: DOPE peptide-lipid construct via leader Cys, spacer CMG(2)) ... 5
M17: DOPE peptide-lipid construct: Mur peptide TYPAHTANEV, leader c, spacer CMG(2) (TYPAHTANEVC; also: DOPE peptide-lipid construct via leader Cys, spacer CMG(2)) ... 12
M31: DOPE peptide-lipid construct: Mur peptide YPAHTANEVS, leader c, spacer CMG(2) (YPAHTANEVSC; also: DOPE peptide-lipid construct via leader Cys, spacer CMG(2)) ... 12

Now turn to the next substance.
### Prompt Request the reported agglutination score, false positive serum T28 associated with M26: DOPE peptide-lipid construct: Mur peptide YPAHTANEV, leader c, spacer CMG(2) (YPAHTANEVC; also: DOPE peptide-lipid construct via leader Cys, spacer CMG(2))
### Response 12
